Target under test: DP receptor (Homo sapiens, UniProt Q13258)
Construct: endogenous in cells; host or cells: washed platelets from peripheral blood of a healthy volunteer (whole platelets in A1, platelet membrane fraction in A2)
Sequence (Q13258 1-359): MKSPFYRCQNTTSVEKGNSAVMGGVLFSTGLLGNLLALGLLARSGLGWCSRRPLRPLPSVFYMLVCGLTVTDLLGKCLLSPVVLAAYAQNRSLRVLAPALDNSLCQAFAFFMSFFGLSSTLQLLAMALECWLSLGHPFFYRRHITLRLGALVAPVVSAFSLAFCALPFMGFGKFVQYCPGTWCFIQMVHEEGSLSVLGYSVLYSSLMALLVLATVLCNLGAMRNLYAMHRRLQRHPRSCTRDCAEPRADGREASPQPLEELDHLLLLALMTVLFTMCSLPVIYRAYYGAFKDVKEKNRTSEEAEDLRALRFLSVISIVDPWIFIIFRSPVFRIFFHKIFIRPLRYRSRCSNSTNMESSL
Test method notes: cAMP assay with washed platelets (DP inhibitory activity in vitro)
Format: cell-based
Settings: 100 nM PGD2, cAMP by HTRF, read-out: IC50 (50% DP-inhibitory concentration in the cAMP assay)
Please respond with reported pIC50 for every item in the list.
Numbers only, as −log10 of the molar value.

The examples below pair each entry with its known result.
{"columns": ["Compound", "Target under test", "Measure", "Result value"],
 "data": [
  ["CC(C)Oc1ccc(S(=O)(=O)N2CC[C@@H](c3cn(CC(=O)O)c4ccc(Cl)cc34)C2)cc1 [Compound I-65]", "DP receptor (Homo sapiens, UniProt Q13258)", "pIC50", 9.47],
  ["CC(C)Oc1ccc(S(=O)(=O)N2CCC(c3cn(CC(=O)O)c4cc(F)ccc34)C2)cc1 (stereo not drawn) [Compound I-34]", "DP receptor (Homo sapiens, UniProt Q13258)", "pIC50", 8.64],
  ["CC(C)Oc1ccc(S(=O)(=O)N2CCC(c3cn(CC(=O)O)c4cc(-c5ncco5)ccc34)CC2)cc1 [Compound I-104]", "DP receptor (Homo sapiens, UniProt Q13258)", "pIC50", 8.92]
]}

Give me pIC50 for each of these compounds, listed below.
1. CC(C)Oc1ccc(S(=O)(=O)N2CCC(c3cn(CC(=O)O)c4cc(-c5ccsc5)ccc34)C2)cc1 (stereo not drawn) [Compound I-67]
2. CC(C)Oc1ccc(S(=O)(=O)N2CC[C@@H](c3cn(CC(=O)O)c4cc(Cl)ccc34)C2)cc1 [Compound I-79]
3. CC(C)Oc1ccc(S(=O)(=O)N2CCC(c3cn(CC(=O)O)c4c(Cl)cccc34)C2)cc1 (stereo not drawn) [Compound I-19]
4. CC(C)Oc1ccc(S(=O)(=O)N2CCC(c3cn(CC(=O)O)c4cc(-c5nccs5)ccc34)CC2)cc1 [Compound I-100]
5. CC(C)Oc1ccc(S(=O)(=O)N2CCC(c3cn(CC(=O)O)c4cc(N5CCCC5=O)ccc34)C2)cc1 (stereo not drawn) [Compound I-107]

Result:
1: 8.85; 2: 9.72; 3: 8.89; 4: 8.72; 5: 8.64

Provide each entry's pIC50 from the list below.
1. CC(C)Oc1ccc(S(=O)(=O)N2CCC(c3cn(CC(=O)O)c4ccc(Cl)cc34)C2)cc1 (stereo not drawn) [Compound I-10]
2. CC(C)Oc1ccc(S(=O)(=O)N2CCC(c3cn(CC(=O)O)c4cc(Br)ccc34)C2)cc1 (stereo not drawn) [Compound I-60]
3. COc1ccc(-c2ccc3c(C4CCN(S(=O)(=O)c5ccc(OC(C)C)cc5)C4)cn(CC(=O)O)c3c2)cc1 (stereo not drawn) [Compound I-74]
4. CC(C)Oc1ccc(S(=O)(=O)N2CCC(c3cn(CC(=O)O)c4ccc(F)cc34)CC2)cc1 [Compound I-23]
5. CC(C)Oc1ccc(S(=O)(=O)N2CC[C@@H](c3cn(CC(=O)O)c4cc(-c5nccs5)ccc34)C2)cc1 [Compound I-96]
6. CC(C)Oc1ccc(S(=O)(=O)N2CCC(c3cn(CC(=O)O)c4cc(-c5ccncc5)ccc34)C2)cc1.Cl (stereo not drawn) [Compound I-75]

Result:
[9.00, 9.14, 8.72, 8.72, 9.64, 8.77]

Ask: Which pIC50 reading was recorded for the compound CC(C)Oc1ccc(S(=O)(=O)N2CCC(c3cn(CC(=O)O)c4cc(Cl)ccc34)C2)cc1 (stereo not drawn) [Compound I-14] ?
Result: 9.01

Reference source: patent US7956082B2
